Listed here: items and their measured IC50.
TESTED_TARGET: IL-17A/F (Homo sapiens, UniProt Q16552+Q96PD4)
Construct: purchased R&D Systems
Sequence (Q16552 24-155): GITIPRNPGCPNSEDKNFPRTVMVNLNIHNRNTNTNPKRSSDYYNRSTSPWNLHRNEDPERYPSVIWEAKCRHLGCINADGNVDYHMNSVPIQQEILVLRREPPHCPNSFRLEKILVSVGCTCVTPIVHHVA
Sequence (Q96PD4 31-163): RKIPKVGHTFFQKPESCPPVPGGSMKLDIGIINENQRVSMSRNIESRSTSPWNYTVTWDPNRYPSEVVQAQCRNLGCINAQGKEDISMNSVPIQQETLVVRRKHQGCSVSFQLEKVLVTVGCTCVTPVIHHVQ
PROCEDURE_TEXT: IL-17A/F HEK-Blue cell assay (SEAP reporter)
Type: cell-based
MEASUREMENT_CONDITIONS: HEK-Blue IL-17A reporter cells, IL17A/F 5 ng/mL, 20 hours, SEAP read at A630; read-out: HEK-Blue IL17AF (IC50 for IL-17A/F inhibition)

Field: example entries. Status: answers known.
{"columns": ["MOLECULE", "IC50"],
 "data": [
  ["Cn1ncnc1C(=O)N[C@H](c1cn2nc(C[C@H]3C[C@@H](C(F)(F)F)CNC3=O)c(C3CCOCC3)nc2n1)C1CCC(F)(F)CC1", "> 1 µM"],
  ["CC(C)n1nccc1C(=O)N[C@H](c1cn2nc(CC3C[C@@H](C(F)(F)F)CNC3=O)c(N3CCOCC3)nc2n1)C1CCC(F)(F)CC1 (single isomer, unassigned) [Compound 79]", "0.1 to 1 µM"],
  ["CCn1nccc1C(=O)N[C@H](c1cn2nc(C[C@H]3C[C@@H](C(F)(F)F)CNC3=O)c(C3CCOCC3)nc2n1)C1CC[C@@H]2C[C@@H]2CC1 (single isomer, unassigned)", "< 0.1 µM"],
  ["CC(C)n1nccc1C(=O)N[C@H](c1cn2nc(C[C@H]3C[C@@H](C(F)(F)F)CNC3=O)cnc2n1)C1CCC(F)(F)CC1", "> 1 µM"]
]}

Prompt line: # returns recorded IC50 (system: IL-17A/F (Homo sapiens, UniProt Q16552+Q96PD4)) for CCn1nccc1C(=O)N[C@H](c1cn2nc(CC3C[C@@H](C(F)(F)F)CNC3=O)c(N3CC4CC(C3)O4)nc2n1)[C@H]1CC[C@H](C)CC1 (single isomer, unassigned) [Compound 102]
Response line: < 0.1 µM

* * *

TESTED_TARGET: IL-17A/A (Homo sapiens)
PROCEDURE_TEXT: IL-17A/A HEK-Blue cell assay (SEAP reporter)
MEASUREMENT_CONDITIONS: HEK-Blue IL-17A reporter cells, IL17A/A 5 ng/mL, 20 hours, SEAP read at A630; read-out: HEK-Blue IL17AA (IC50 for IL-17A/A inhibition)
pIC50: −log10 of the molar value.
Listed here: items and their measured pIC50.

{"columns": ["COMPOUND", "pIC50"],
 "data": [
  ["CCn1nccc1C(=O)N[C@H](c1cn2nc(C[C@H]3C[C@@H](C(F)(F)F)CNC3=O)c(C3CCOC3)nc2n1)[C@@H]1CCCC(F)(F)C1 (single isomer, unassigned) [Compound 73]", "> 7.00"],
  ["Cn1nccc1C(=O)N[C@H](c1cn2nc(C[C@H]3C[C@@H](C(F)(F)F)CNC3=O)c(C3CCOCC3)nc2n1)[C@@H]1CCCC(F)(F)C1 [Compound 277]", "> 7.00"]
]}

Now, please, on to the next compound.
Prompt line: # returns recorded pIC50 (system: IL-17A/A (Homo sapiens)) for CCn1nccc1C(=O)N[C@H](c1cn2nc(C[C@@H]3CC4(CC4)CNC3=O)c(C3CCOCC3)nc2n1)C1CCC(F)(F)CC1 [Compound 424]
Response line: > 7.00

The origin of these recorded values is patent US20260226068A1.
